- target.under.test: recombinant human GR (Homo sapiens, UniProt P04150)
- Sequence (P04150 1-777): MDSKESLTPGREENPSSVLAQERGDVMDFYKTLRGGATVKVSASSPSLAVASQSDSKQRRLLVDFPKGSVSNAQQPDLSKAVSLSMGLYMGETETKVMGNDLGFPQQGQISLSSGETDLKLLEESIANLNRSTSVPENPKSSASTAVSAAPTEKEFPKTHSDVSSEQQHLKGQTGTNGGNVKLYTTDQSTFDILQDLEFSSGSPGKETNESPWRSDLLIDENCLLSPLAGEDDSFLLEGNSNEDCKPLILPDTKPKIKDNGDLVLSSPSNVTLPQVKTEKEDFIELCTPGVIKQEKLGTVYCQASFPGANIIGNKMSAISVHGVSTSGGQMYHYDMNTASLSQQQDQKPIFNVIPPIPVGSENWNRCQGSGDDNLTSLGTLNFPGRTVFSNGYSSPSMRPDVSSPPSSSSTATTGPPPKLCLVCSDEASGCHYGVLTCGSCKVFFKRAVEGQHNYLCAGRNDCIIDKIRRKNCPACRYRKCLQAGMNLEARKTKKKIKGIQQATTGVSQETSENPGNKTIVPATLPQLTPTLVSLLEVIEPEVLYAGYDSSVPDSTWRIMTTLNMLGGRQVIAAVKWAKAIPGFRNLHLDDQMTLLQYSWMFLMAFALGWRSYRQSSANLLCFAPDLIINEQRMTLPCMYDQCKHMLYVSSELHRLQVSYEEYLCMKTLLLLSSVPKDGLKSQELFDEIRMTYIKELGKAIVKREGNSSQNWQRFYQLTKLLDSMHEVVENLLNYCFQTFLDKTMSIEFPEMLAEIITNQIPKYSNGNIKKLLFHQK
- assay.details: Human Glucocorticoid Receptor (GR) Assay, fluorescence polarization (GRhuFL_FP_v2, GR-binders)
- Protocol: Human Glucocorticoid Receptor (GR) Assay The assay is based on a commercial kit from Panvera/Invitrogen (Part number P2893). The assay technology is fluorescence polarization. […] The GR and Stabilizing Peptide reagents are stored at −70° C. while the GS Red is stored at −20° C. Also included in the kit are 1M DTT (Panvera, Part number P2325, stored at −20° C.) and GR Screening buffer 10× (Panvera, Part number P2814, stored at −70° C. initially but once thawed stored at room temperature). […]
measurement.name: pIC50
# log scale: pIC50 equals minus log10 of the concentration in mol/L

COc1ccc(-n2ncc3c(NC[C@H](C)NS(=O)(=O)c4c(C)cc(C)cc4C)cccc32)cn1 : 8.18
Cc1nn([C@@H]2CCOC2)c(C)c1S(=O)(=O)N[C@@H](C)COc1cccc2c1cnn2-c1ccc(F)cc1 : 7.74
Cc1cc(C)c(S(=O)(=O)N[C@@H](C)CNc2ccc(F)c3c2cnn3-c2ccc(F)cc2)c(C)c1 : 8.26
Cc1n[nH]c(C)c1S(=O)(=O)N[C@@H](C)COc1cccc2c1cnn2-c1ccc(F)cc1 : 8.82
Cc1cc(C)c(S(=O)(=O)N[C@@H](C)CNc2cccc3c2cnn3-c2ccnc(F)c2)c(C)c1 : 8.15
Cc1cc(C)c(S(=O)(=O)N[C@@H](C)CNc2cccc3c2cnn3-c2cncnc2)c(C)c1 : 8.27
Cc1cccc(-n2ncc3c(NC[C@H](C)NS(=O)(=O)c4c(C)cc(C)cc4C)cccc32)c1 : 8.42
Cc1cc(C)c(S(=O)(=O)N[C@@H](C)CNc2ncnc3c2cnn3-c2ccccc2)c(C)c1 : 5.28
Cc1nn(C2CCCC2)c(C)c1S(=O)(=O)N[C@@H](C)COc1cccc2c1cnn2-c1ccc(F)cc1 : 7.29
Cc1cc(C)c(S(=O)(=O)NC(C)CCc2cccc3c2cnn3-c2ccc(F)cc2)c(C)c1 (centres unmarked) : 7.35

Give its pIC50 value. Item: "Cc1cc(C)c(S(=O)(=O)N[C@@H](C)CCc2cccc3c(-c4ccc(F)cc4)n[nH]c23)c(C)c1" 8.00

Entry to check: "Cc1nn(C2CCCC2)c(C)c1S(=O)(=O)N[C@@H](C)CNc1cccc2c1cnn2-c1ccc(F)cc1" 8.42

What about "Cc1cc(C)c(S(=O)(=O)NC[C@@H](C)Nc2cccc3c2cnn3-c2ccc(F)cc2)c(C)c1" ? 8.06

Can you handle "Cc1nn(C2CCCC2)c(C)c1S(=O)(=O)N[C@@H](C)COc1cccc2c1cnn2-c1cccnc1" next? 7.27

Try this molecule too: "COCc1cccc(-n2ncc3c(NC[C@H](C)NS(=O)(=O)c4c(C)cc(C)cc4C)cccc32)c1" 8.36

Same question for "Cc1nn(C2CCCC2)c(C)c1S(=O)(=O)N[C@@H](C)CNc1cccc2c1cnn2-c1ccc(C#N)cc1" please. 8.33

Same thing, different molecule: "Cc1nn(C2CCCC2)c(C)c1S(=O)(=O)N[C@@H](C)CNc1cccc2c1cnn2-c1ccc(OC(F)(F)F)cc1" 7.92
